Data origin, for the record: patent US20100267697A1

tested_target: Cav2.2 (Homo sapiens, UniProt Q00975)
Construct: expressed in transfected cells; host or cells: HEK-293T/17 (transient, FuGENE 6)
Sequence (Q00975 whole entry): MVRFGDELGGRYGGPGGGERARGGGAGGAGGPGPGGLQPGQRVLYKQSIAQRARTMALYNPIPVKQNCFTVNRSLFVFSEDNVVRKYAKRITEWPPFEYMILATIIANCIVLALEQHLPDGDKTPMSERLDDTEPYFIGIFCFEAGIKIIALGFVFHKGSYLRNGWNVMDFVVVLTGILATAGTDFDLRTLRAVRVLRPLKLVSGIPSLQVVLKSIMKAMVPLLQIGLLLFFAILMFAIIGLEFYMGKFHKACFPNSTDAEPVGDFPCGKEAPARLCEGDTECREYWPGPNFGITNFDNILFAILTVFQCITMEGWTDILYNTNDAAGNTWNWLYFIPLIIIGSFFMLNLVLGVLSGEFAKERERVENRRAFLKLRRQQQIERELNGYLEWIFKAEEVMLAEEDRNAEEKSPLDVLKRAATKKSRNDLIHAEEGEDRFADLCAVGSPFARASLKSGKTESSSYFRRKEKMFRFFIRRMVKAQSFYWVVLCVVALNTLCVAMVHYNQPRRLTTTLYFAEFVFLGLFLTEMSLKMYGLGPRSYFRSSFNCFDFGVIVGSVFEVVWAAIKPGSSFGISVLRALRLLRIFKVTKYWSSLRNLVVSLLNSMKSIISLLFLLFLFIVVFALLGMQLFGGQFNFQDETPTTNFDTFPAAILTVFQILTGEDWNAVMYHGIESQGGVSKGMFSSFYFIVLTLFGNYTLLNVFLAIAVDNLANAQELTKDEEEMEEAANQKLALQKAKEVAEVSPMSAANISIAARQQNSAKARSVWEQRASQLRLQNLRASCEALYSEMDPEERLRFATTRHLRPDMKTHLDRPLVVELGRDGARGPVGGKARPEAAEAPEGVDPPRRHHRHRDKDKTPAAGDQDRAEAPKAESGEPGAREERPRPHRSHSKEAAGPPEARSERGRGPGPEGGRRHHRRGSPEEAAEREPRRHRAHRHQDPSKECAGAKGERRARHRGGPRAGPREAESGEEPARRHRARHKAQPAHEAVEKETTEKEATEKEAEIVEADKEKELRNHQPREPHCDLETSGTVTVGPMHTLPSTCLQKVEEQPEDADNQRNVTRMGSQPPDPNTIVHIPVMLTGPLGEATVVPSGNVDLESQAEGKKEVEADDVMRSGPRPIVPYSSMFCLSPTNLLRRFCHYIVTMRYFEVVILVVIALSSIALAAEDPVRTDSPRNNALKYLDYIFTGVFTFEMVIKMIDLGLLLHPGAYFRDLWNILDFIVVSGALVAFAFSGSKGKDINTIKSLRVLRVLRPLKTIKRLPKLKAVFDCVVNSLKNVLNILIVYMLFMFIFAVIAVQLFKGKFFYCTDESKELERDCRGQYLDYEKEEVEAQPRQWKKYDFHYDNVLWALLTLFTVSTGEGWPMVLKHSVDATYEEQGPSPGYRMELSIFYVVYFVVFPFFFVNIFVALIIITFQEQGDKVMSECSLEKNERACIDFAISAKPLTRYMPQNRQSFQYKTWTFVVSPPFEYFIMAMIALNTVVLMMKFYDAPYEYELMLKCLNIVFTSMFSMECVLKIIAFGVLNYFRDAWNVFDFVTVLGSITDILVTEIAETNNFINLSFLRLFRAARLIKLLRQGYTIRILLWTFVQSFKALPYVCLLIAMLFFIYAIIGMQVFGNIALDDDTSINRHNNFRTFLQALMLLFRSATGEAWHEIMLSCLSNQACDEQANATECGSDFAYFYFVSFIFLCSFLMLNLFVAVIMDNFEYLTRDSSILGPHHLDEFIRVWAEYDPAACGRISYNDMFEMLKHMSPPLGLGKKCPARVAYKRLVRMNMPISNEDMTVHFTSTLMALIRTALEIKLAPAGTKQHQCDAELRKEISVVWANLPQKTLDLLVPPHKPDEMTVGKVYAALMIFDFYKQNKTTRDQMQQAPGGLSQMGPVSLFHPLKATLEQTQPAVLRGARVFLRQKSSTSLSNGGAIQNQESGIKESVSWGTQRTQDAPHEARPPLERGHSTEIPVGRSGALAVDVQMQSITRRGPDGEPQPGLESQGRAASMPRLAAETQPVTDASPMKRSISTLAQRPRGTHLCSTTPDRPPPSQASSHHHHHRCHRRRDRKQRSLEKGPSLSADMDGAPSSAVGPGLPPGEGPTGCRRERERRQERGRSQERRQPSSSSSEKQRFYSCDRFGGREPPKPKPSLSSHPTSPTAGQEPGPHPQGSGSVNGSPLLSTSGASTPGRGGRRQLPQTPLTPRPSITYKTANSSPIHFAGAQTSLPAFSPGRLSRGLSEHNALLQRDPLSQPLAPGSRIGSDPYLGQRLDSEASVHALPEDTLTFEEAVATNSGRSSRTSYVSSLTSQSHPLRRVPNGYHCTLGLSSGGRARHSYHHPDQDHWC
Sequence (P54284 whole entry partner): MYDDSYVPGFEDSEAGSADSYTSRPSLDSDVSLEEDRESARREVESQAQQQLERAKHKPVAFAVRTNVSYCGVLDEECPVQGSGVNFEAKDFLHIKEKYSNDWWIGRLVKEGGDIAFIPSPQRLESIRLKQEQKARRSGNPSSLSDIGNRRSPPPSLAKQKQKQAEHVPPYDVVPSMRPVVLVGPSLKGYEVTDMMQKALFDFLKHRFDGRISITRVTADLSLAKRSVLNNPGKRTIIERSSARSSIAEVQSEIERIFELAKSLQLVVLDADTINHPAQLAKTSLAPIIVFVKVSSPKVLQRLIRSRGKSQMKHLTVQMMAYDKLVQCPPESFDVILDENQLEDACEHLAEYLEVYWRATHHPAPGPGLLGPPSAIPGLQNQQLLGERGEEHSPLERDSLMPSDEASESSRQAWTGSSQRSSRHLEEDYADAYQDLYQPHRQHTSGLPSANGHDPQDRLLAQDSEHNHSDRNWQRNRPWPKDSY
Sequence (P54289 25-946 partner limits assumed): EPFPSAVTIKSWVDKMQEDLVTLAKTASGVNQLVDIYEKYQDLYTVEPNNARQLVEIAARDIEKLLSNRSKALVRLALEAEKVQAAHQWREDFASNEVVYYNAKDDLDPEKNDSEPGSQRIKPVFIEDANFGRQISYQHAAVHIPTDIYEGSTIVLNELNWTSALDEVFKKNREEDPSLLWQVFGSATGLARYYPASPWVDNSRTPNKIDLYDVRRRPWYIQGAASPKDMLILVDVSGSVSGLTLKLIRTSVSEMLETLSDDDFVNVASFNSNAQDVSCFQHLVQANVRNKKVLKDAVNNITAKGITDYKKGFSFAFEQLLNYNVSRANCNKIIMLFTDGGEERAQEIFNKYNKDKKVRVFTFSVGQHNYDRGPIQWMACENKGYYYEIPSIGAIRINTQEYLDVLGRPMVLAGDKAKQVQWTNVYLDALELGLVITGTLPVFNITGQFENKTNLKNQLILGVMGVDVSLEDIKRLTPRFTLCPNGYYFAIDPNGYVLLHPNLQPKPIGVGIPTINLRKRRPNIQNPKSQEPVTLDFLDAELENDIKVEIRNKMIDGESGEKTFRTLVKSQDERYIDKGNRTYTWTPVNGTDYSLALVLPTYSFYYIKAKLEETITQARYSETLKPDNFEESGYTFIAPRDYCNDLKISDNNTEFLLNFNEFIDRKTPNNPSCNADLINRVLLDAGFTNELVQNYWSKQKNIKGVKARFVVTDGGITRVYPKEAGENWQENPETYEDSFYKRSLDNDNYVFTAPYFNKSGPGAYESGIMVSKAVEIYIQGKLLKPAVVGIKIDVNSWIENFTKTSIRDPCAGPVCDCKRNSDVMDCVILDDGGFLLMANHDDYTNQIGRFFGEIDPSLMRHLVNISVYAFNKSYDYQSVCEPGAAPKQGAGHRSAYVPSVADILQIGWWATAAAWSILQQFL
Sequence (P54289 947-1103 partner limits assumed): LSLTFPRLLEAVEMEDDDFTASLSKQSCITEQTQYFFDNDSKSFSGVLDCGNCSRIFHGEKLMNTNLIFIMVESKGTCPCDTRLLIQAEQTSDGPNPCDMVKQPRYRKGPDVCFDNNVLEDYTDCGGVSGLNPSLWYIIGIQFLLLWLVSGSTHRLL
test_details: HEK assay (whole-cell patch clamp, transiently transfected HEK-293T/17 cells, pulses P1 and P5)
Format: cell-based
condition_set: fifth pulse (P5) of 5 Hz train, holding potential −100 mV, read-out: HEK Cav2.2 P5 IC50
Structures can show the parent of a compound that is named as a salt.
reported_property: IC50 (nM)

Take a look at these entries with their results.
- compound: "CNC1CCN(c2ccc(CN(C(=O)C(C)(C)C)c3ccc(F)cc3)cn2)C1 (stereo not shown)"
  IC50 (nM): 2800
- compound: "CCC(C)(C)C(=O)N(Cc1ccc(N2CCN(S(C)(=O)=O)CC2)nc1)c1ccc(F)cc1"
  IC50 (nM): 3000
- compound: "CC(C)c1ccccc1N(Cc1ccc(N2CCN(C)CC2)nc1)C(=O)C(C)(C)C"
  IC50 (nM): 2700

P = CCN(c1ccc(CN(C(=O)C(C)(C)C)c2ccc(N(C)C)cc2)cn1)C1CC1
Q = CCN(CC)c1ccc(CN(C(=O)C(C)(C)C)c2ccc(F)cc2)cn1 [Compound 3, trifluoroacetate]
R = CC(C)(C)C(=O)N(Cc1csc(-c2ccncc2)n1)c1ccc(F)cc1
Task item: Reorder the items by IC50, least to greatest. To answer, write out the labels according to the requested order.
Reply: Q, P, R

a = CCN(CC)c1nc(CN(C(=O)C(C)(C)CC)c2ccc(N(C)C)cc2)cs1
b = CC(C)(C)C(=O)N(Cc1ccc(N2CCCC2CO)nc1)c1ccc(F)cc1 (stereo not shown)
Task item: For the two items a and b , which reports the higher IC50 value? Answer by quoting the chosen item's label.
Reply: b
(b: 4200 nM, a: 1100 nM)

###

tested_target: Cav2.2 (Homo sapiens, UniProt Q00975)
Construct: expressed in transfected cells; host or cells: HEK-293T/17 (transient, FuGENE 6)
test_details: HEK assay (whole-cell patch clamp, transiently transfected HEK-293T/17 cells, pulses P1 and P5)
Type: cell-based
condition_set: fifth pulse (P5) of 5 Hz train, holding potential −100 mV, read-out: HEK Cav2.2 P5 IC50
pIC50: −log10 of the molar value.
reported_property: pIC50

Take a look at these entries with their results.
- smiles: "CCOC(=O)c1cn(C(C)(C)C(=O)N(Cc2ccc(N(CC)CC)nc2)c2ccc(F)cc2)nn1"
  pIC50: 5.60
- smiles: "CN1CCN(c2ncc(CN(C(=O)C(C)(C)C)c3ccc(F)cc3)s2)CC1"
  pIC50: 5.28
- smiles: "CC(C)c1cccc(N(Cc2csc(N3CCCCC3)n2)C(=O)C(C)(C)C)c1"
  pIC50: 6.30
- smiles: "CCN(CC)c1ccc(CN(C(=O)/C=C/C(C)C)c2ccc(N(C)C)cc2)cc1"
  pIC50: 6.15
- smiles: "CC(C)(C)OC(=O)N(Cc1csc(-c2ccncc2)n1)c1ccc(F)cc1"
  pIC50: 5.08

a = CC(C)(C)C(=O)N(Cc1csc(N2CCCC2)n1)c1ccc(F)cc1
b = CCN(CC)c1ccc(N(Cc2cccc(N(CC)C3CC3)c2)C(=O)C(C)(C)C)cc1
Task item: Look at a and b . Which one has the lower recorded pIC50 number? Answer by quoting the chosen item's label.
Reply: a
